biological target: activated human C1 (Homo sapiens, UniProt P09871); construct: functional test of fluid-phase human C2 destruction in presence of C4; experiment: Test Code 026 (C1 inhibitor); type: biochemical; conditions: serial twofold dilution assay; higher well number indicates higher activity
Sequence (P09871 16-688): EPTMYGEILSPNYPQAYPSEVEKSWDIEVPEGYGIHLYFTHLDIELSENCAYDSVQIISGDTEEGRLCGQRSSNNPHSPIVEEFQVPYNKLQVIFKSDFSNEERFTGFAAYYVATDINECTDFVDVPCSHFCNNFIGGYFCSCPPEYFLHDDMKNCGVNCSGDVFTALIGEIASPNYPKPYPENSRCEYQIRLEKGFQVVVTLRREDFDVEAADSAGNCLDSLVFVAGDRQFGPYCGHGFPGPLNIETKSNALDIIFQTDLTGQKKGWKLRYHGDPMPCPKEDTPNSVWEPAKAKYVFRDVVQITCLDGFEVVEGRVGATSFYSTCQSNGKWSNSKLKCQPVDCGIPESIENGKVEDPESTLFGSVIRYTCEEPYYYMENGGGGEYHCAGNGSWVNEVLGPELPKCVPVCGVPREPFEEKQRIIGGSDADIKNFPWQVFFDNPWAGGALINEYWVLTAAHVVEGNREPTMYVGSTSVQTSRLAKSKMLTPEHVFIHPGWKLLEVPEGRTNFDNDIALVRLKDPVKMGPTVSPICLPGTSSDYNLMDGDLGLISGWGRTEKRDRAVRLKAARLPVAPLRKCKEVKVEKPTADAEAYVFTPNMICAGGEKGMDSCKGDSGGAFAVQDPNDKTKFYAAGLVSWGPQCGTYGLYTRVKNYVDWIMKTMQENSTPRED
Sequence (P00736 18-705 partner): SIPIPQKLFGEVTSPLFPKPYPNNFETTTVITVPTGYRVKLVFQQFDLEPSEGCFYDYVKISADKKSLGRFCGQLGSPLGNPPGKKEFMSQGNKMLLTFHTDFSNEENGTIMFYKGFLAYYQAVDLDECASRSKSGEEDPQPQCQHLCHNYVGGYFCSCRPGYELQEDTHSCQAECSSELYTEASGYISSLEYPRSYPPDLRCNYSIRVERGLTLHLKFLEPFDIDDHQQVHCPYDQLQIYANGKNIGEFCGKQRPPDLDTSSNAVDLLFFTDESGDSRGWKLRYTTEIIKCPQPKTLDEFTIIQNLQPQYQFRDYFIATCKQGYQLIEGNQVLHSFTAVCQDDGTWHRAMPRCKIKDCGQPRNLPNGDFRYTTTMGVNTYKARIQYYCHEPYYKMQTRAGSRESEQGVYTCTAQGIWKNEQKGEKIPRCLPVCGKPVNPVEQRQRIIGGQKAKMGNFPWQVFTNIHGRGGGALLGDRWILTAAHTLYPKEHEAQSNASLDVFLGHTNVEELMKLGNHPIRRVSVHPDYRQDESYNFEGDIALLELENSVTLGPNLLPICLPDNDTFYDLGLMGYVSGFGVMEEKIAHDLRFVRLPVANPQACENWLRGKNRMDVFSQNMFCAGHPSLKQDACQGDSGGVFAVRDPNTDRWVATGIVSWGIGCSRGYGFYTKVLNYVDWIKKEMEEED
Sequence (P02745 23-245 partner): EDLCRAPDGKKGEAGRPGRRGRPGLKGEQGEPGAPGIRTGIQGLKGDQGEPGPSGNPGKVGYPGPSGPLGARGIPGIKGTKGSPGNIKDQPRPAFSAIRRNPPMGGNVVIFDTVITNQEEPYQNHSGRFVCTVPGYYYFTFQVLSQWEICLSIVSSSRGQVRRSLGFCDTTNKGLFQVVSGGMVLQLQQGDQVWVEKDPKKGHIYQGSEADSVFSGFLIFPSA
Sequence (P02746 28-253 partner): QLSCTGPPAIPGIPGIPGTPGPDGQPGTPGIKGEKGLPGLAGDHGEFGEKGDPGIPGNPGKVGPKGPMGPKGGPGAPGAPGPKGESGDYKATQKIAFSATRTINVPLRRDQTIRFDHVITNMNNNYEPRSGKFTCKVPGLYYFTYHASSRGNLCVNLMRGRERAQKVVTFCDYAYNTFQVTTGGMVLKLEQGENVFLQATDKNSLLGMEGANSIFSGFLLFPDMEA
Sequence (P02747 29-245 partner): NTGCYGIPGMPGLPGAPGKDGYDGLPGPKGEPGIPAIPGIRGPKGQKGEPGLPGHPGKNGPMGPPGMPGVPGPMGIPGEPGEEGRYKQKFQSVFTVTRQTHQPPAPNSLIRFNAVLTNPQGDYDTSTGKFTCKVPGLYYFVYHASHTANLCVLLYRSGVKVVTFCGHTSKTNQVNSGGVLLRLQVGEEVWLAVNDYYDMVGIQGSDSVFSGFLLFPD
ENDPOINT: C1 026* Wells

MOLECULE	EXPERIMENTAL_TARGET	ASSAY_RESULT
O=S(=O)(O)OC[C@H]1O[C@H](OC[C@H]2OC(OS(=O)(=O)O)[C@H](OS(=O)(=O)O)[C@@H](OS(=O)(=O)O)[C@@H]2OS(=O)(=O)O)[C@H](OS(=O)(=O)O)[C@@H](OS(=O)(=O)O)[C@H]1OS(=O)(=O)O (stereo partly shown)	activated human C1 (Homo sapiens, UniProt P09871)	+8 Wells
